Entries annotated with measured binding signal
Biological target: GST-Nv-NF-kB (Cys allele) (Nematostella vectensis, UniProt E5G601 2-411)
Sequence: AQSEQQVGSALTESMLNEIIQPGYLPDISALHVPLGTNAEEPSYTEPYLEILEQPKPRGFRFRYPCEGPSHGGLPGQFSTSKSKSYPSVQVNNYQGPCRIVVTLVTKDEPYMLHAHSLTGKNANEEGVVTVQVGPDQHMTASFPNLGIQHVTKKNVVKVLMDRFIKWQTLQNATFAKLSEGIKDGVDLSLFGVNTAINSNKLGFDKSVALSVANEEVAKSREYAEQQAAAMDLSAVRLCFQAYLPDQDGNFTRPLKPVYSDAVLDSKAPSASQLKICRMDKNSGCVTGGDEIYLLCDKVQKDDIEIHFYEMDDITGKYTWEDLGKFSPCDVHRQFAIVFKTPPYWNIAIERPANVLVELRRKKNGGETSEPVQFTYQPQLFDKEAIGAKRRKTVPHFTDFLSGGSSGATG
Assay: protein-binding microarray (PBM); PBM: ~300 nM protein, 6 mM HEPES pH 7.8, 80 mM KCl, 0.5 mM EDTA, 0.5 mM EGTA, 6% glycerol, 35 ng/ul poly-dIdC, 1% milk, 1 h, room temperature; Ap Aiptasia and Nv Nematostella (sea anemones) / Co Capsaspora / Aq Amphimedon (sponge) / Dm Drosophila / Hu human; RHD is the Rel homology domain; high values mean tight binding
Settings: dsDNA, one strand shown
parameter-measured: binding signal (z-score)

[
  {
    "sequence-string": "CCGATTAACATCAGGGGGATGGATGATGTTAATCGGGTCTTGATTCGCTTGACGCTGCTG",
    "reading-unit": "z-score",
    "observed-value": 3.13
  },
  {
    "sequence-string": "CCGATTAACATCACGGGTATTCCTGATGTTAATCGGGTCTTGATTCGCTTGACGCTGCTG",
    "reading-unit": "z-score",
    "observed-value": 5.05
  },
  {
    "sequence-string": "CCGATTAACATCAGGACCTTCCCTGATGTTAATCGGGTCTTGATTCGCTTGACGCTGCTG",
    "reading-unit": "z-score",
    "observed-value": 2.66
  },
  {
    "sequence-string": "CCGATTAACATCAGGGGGCTTTATGATGTTAATCGGGTCTTGATTCGCTTGACGCTGCTG",
    "reading-unit": "z-score",
    "observed-value": 5.53
  },
  {
    "sequence-string": "CCGATTAACATCACCCAATTCCCTGATGTTAATCGGGTCTTGATTCGCTTGACGCTGCTG",
    "reading-unit": "z-score",
    "observed-value": 3.63
  }
]
